system: Plasmodium falciparum; assay: Non-competitive inhibition of Plasmodium falciparum apicoplast DNA polymerase assessed as inhibition constant for higher affinity site in presence of various concentrations of dNTPs by molecular beacon assay
measurement-label: KiH (µM)
Form entry: value (µM) — number only.

>>> measured_number("CC(C)(C)c1ccc(NC(=O)Nc2c3c(nn2-c2cccc(C(F)(F)F)c2)CSC3)cc1")
2.17
>>> measured_number("CC(C)(C)c1ccc(NC(=O)Nc2c3c(nn2-c2ccc(Cl)cc2)CSC3)cc1")
1.97

(Q) Need KiH of `CC(C)(C)c1ccc(C(=O)Nc2c3c(nn2-c2cccc(Cl)c2)CSC3)cc1` , thanks.
(A) 5.98

(Q) # query: KiH of entry `CC(C)(C)c1ccc(NC(=O)Nc2c3c(nn2-c2cccc(Cl)c2)CSC3)cc1`
(A) 2.73

---

tested on: Plasmodium falciparum; experiment: Inhibition of plasmodium falciparum apicoplast DNA polymerase exonuclease activity using blunt-ended double stranded oligonucleotide with 2-aminopurine at position 1 on 3' end as substrate assessed as reduction in exonuclease proofreading activity at 3'-5' direction at 100 uM relative to control
measurement-label: inhibition

Look over these answered cases.
>>> result("Cc1cccc(-n2nc3c(c2NC(=O)c2ccc(C(C)(C)C)cc2)CSC3)c1")
"< 50%"
>>> result("CC(C)(C)c1ccc(S(=O)(=O)Nc2c3c(nn2-c2cccc(Cl)c2)CSC3)cc1")
"> 90%"
>>> result("CC(C)(C)c1ccc(C(=O)Nc2c3c(nn2-c2ccc(C(F)(F)F)cc2)CSC3)cc1")
"< 50%"
>>> result("CC(C)(C)c1ccc(NC(=O)Nc2c3c(nn2-c2cccc(Cl)c2)CSC3)cc1")
"< 50%"
>>> result("CC(C)(C)c1ccc(C(=O)Nc2c3c(nn2-c2cccc(C(F)(F)F)c2)CSC3)cc1")
"< 50%"
>>> result("Cc1cccc(-n2nc3c(c2NC(=O)Nc2ccc(C(C)(C)C)cc2)CSC3)c1")
"< 50%"
>>> result("CC(C)(C)c1ccc(NC(=O)Nc2c3c(nn2-c2ccc(C(F)(F)F)cc2)CSC3)cc1")
"< 50%"
>>> result("CC(C)(C)c1ccc(C(=O)Nc2c3c(nn2-c2cccc(Cl)c2)CSC3)cc1")
"< 50%"

Next compound, please.
(Q) Notebook entry, Plasmodium falciparum assay: inhibition of `CC(C)(C)c1ccc(C(=O)Nc2c3c(nn2-c2ccc(Cl)cc2)CSC3)cc1` = ?
(A) < 50%

---

test system: Plasmodium falciparum; test: Inhibition of plasmodium falciparum apicoplast DNA polymerase exonuclease activity using blunt-ended double stranded oligonucleotide with 2-aminopurine at position 1 on 3' end as substrate assessed as exonuclease specific activity at 100 uM (reference value: 2.2 +/- 0.09%)
measurement-label: log10 of Activity (log10 of the value in U)
Log scale reminder: Activity in U, then log10 taken.

Please review the entries below; each comes with its answer.
>>> measured_number("CC(C)(C)c1ccc(NC(=O)Nc2c3c(nn2-c2cnccn2)COC3)cc1")
0.23
>>> measured_number("Cc1cccc(-n2nc3c(c2NC(=O)c2ccc(C(C)(C)C)cc2)CSC3)c1")
0.36
>>> measured_number("Cc1ccc(-n2nc3c(c2NC(=O)Nc2ccc(C(C)(C)C)cc2)CSC3)cc1")
0.26
>>> measured_number("CC(C)(C)c1ccc(C(=O)Nc2c3c(nn2-c2ccc(C(F)(F)F)cc2)CSC3)cc1")
0.30
>>> measured_number("CC(C)(C)c1ccc(NC(=O)Nc2c3c(nn2-c2ccc(C(F)(F)F)cc2)CSC3)cc1")
0.32

(Q) Identify the measured log10 of Activity of `CC(C)(C)c1ccc(C(=O)Nc2c3c(nn2-c2ccc(Cl)cc2)CSC3)cc1` for Plasmodium falciparum.
(A) 0.38

(Q) Report log10 of Activity for `Cc1ccc(-n2nc3c(c2NC(=O)c2ccc(C(C)(C)C)cc2)CSC3)cc1` tested on Plasmodium falciparum.
(A) 0.18

(Q) // lookup log10 of Activity | system=Plasmodium falciparum | key= `CC(C)(C)c1ccc(NC(=O)Nc2c3c(nn2-c2ccc(Cl)cc2)CSC3)cc1`
(A) 0.32
